# System: Escherichia coli TOP10
# experiment_notes: shrunken log2 fold change of peptide-encoding DNA abundance (4.5 h post-induction vs induction); higher = less antimicrobial activity (less host growth inhibition)
# condition_summary: time post-induction: 4.5 h; library: site-saturation at positions 5, 18, 19, 20
// 0.0 strictly below -0.03 in shrunken log2 fold change; 1.0 otherwise

sequence_entry	label_value
RRIRCRPPRLPRPRPRPMLWPRP	1.0
RRIRIRPPRLPRPRPRPNHDPRP	0.0
RRIRIRPPRLPRPRPRPEMAPRP	0.0
RRIRDRPPRLPRPRPRPYQIPRP	0.0
RRIRFRPPRLPRPRPRPEFFPRP	0.0
RRIRTRPPRLPRPRPRPIDTPRP	0.0
RRIRWRPPRLPRPRPRPKQHPRP	1.0
RRIRTRPPRLPRPRPRPFLHPRP	0.0
RRIRERPPRLPRPRPRPECKPRP	0.0
RRIRDRPPRLPRPRPRPYWPPRP	0.0
RRIRNRPPRLPRPRPRPPQRPRP	1.0
RRIRWRPPRLPRPRPRPKAHPRP	1.0
RRIRCRPPRLPRPRPRPGSNPRP	0.0
RRIRRRPPRLPRPRPRPEQSPRP	1.0
RRIRLRPPRLPRPRPRPATLPRP	0.0
RRIRMRPPRLPRPRPRPSGHPRP	1.0
RRIRHRPPRLPRPRPRPQIYPRP	0.0
RRIRTRPPRLPRPRPRPLTTPRP	0.0
RRIRARPPRLPRPRPRPGAPPRP	1.0
RRIRIRPPRLPRPRPRPRRWPRP	1.0
RRIRHRPPRLPRPRPRPLEQPRP	1.0
RRIRLRPPRLPRPRPRPIVGPRP	1.0
RRIRARPPRLPRPRPRPIPCPRP	1.0
RRIRCRPPRLPRPRPRPRHDPRP	0.0
RRIRTRPPRLPRPRPRPMCSPRP	0.0
RRIRQRPPRLPRPRPRPTAFPRP	1.0
RRIRDRPPRLPRPRPRPTGEPRP	1.0
RRIRMRPPRLPRPRPRPQHQPRP	1.0
RRIRGRPPRLPRPRPRPMINPRP	1.0
RRIRLRPPRLPRPRPRPPVVPRP	1.0
RRIRARPPRLPRPRPRPCRGPRP	0.0
RRIRWRPPRLPRPRPRPRPCPRP	1.0
RRIRWRPPRLPRPRPRPPNNPRP	0.0
RRIRLRPPRLPRPRPRPVNMPRP	0.0
RRIRKRPPRLPRPRPRPCEWPRP	1.0
RRIRSRPPRLPRPRPRPEELPRP	1.0
RRIRERPPRLPRPRPRPHWVPRP	1.0
RRIRSRPPRLPRPRPRPGYIPRP	0.0
RRIRDRPPRLPRPRPRPSEVPRP	1.0
RRIRNRPPRLPRPRPRPIYQPRP	1.0
RRIRRRPPRLPRPRPRPRWFPRP	1.0
RRIRHRPPRLPRPRPRPILHPRP	0.0
RRIRCRPPRLPRPRPRPKSCPRP	1.0
RRIRKRPPRLPRPRPRPCQQPRP	1.0
RRIRRRPPRLPRPRPRPFWRPRP	1.0
RRIRYRPPRLPRPRPRPPYCPRP	0.0

----------
# Tested on: Escherichia coli TOP10
# experiment_notes: shrunken log2 fold change of peptide-encoding DNA abundance (4.5 h post-induction vs induction); higher = less antimicrobial activity (less host growth inhibition)
# condition_summary: time post-induction: 4.5 h; library: site-saturation at positions 5, 18, 19, 20
// classify(record): look up shrunken log2 fold change in ranges band A: < -0.1; band B: ≥ -0.1 and < 0.03; band C: ≥ 0.03

sequence_entry	label_value
RRIRIRPPRLPRPRPRPLILPRP	band A
RRIRCRPPRLPRPRPRPHGCPRP	band B
RRIRKRPPRLPRPRPRPVRKPRP	band C
RRIRSRPPRLPRPRPRPDHDPRP	band A
RRIRQRPPRLPRPRPRPRNTPRP	band B
RRIRFRPPRLPRPRPRPDAFPRP	band A
RRIRSRPPRLPRPRPRPVWYPRP	band C
RRIRPRPPRLPRPRPRPMRVPRP	band C
RRIRRRPPRLPRPRPRPIKYPRP	band C
RRIRARPPRLPRPRPRPACNPRP	band C
RRIRWRPPRLPRPRPRPQMLPRP	band C
RRIRERPPRLPRPRPRPKDEPRP	band A
RRIRCRPPRLPRPRPRPIIGPRP	band A
RRIRERPPRLPRPRPRPCKAPRP	band B
RRIRLRPPRLPRPRPRPHQTPRP	band B
RRIRHRPPRLPRPRPRPLCIPRP	band A
RRIRHRPPRLPRPRPRPYTQPRP	band A
RRIRWRPPRLPRPRPRPSTEPRP	band C
RRIRWRPPRLPRPRPRPMLFPRP	band B
RRIRTRPPRLPRPRPRPFLTPRP	band C
RRIRMRPPRLPRPRPRPEYEPRP	band C
RRIRVRPPRLPRPRPRPNWFPRP	band C
RRIRVRPPRLPRPRPRPIIKPRP	band A
RRIRNRPPRLPRPRPRPHQTPRP	band B
RRIRRRPPRLPRPRPRPGMLPRP	band C
RRIRYRPPRLPRPRPRPWQDPRP	band A
RRIRDRPPRLPRPRPRPVCIPRP	band B
RRIRQRPPRLPRPRPRPYWQPRP	band A
RRIRMRPPRLPRPRPRPRFYPRP	band C
RRIRRRPPRLPRPRPRPPWTPRP	band C
RRIRCRPPRLPRPRPRPLTLPRP	band A
RRIRLRPPRLPRPRPRPFYVPRP	band A
RRIRIRPPRLPRPRPRPSQCPRP	band B
RRIRIRPPRLPRPRPRPCYPPRP	band A
RRIRTRPPRLPRPRPRPFGCPRP	band B
RRIRGRPPRLPRPRPRPQYHPRP	band A
RRIRHRPPRLPRPRPRPDDMPRP	band A
RRIRKRPPRLPRPRPRPTTTPRP	band C
RRIRQRPPRLPRPRPRPIWYPRP	band B
RRIRWRPPRLPRPRPRPMHGPRP	band A
RRIRLRPPRLPRPRPRPTKMPRP	band C
RRIRNRPPRLPRPRPRPMSFPRP	band B
RRIRCRPPRLPRPRPRPEAYPRP	band B

----------
# System: Escherichia coli TOP10
# experiment_notes: shrunken log2 fold change of peptide-encoding DNA abundance (4.5 h post-induction vs induction); higher = less antimicrobial activity (less host growth inhibition)
# condition_summary: time post-induction: 4.5 h; library: site-saturation at positions 5, 18, 19, 20
Let's look at some sequences and their measured shrunken log2 fold change.
measurement_kind: shrunken log2 fold change

sequence_entry	measurement_kind	observed
RRIRWRPPRLPRPRPRPSPRPRP	shrunken log2 fold change	0.299
RRIRSRPPRLPRPRPRPNSTPRP	shrunken log2 fold change	-0.573
RRIRTRPPRLPRPRPRPVWDPRP	shrunken log2 fold change	0.13
RRIRYRPPRLPRPRPRPEWCPRP	shrunken log2 fold change	-0.244
RRIRHRPPRLPRPRPRPSKFPRP	shrunken log2 fold change	-0.64
RRIRSRPPRLPRPRPRPCSPPRP	shrunken log2 fold change	0.149
RRIRLRPPRLPRPRPRPMHDPRP	shrunken log2 fold change	-0.134
RRIRDRPPRLPRPRPRPRHKPRP	shrunken log2 fold change	0.227
RRIRQRPPRLPRPRPRPEPNPRP	shrunken log2 fold change	-0.0098
RRIRTRPPRLPRPRPRPEFQPRP	shrunken log2 fold change	-0.161
RRIRLRPPRLPRPRPRPMNHPRP	shrunken log2 fold change	-0.409
RRIRKRPPRLPRPRPRPTLFPRP	shrunken log2 fold change	0.111
RRIRYRPPRLPRPRPRPCLMPRP	shrunken log2 fold change	-0.225
RRIRTRPPRLPRPRPRPQNDPRP	shrunken log2 fold change	-0.749
RRIRTRPPRLPRPRPRPSFDPRP	shrunken log2 fold change	-0.365
RRIRLRPPRLPRPRPRPIMIPRP	shrunken log2 fold change	-0.286
RRIRARPPRLPRPRPRPERFPRP	shrunken log2 fold change	0.0769
RRIRNRPPRLPRPRPRPQMWPRP	shrunken log2 fold change	-0.234
RRIRARPPRLPRPRPRPNNDPRP	shrunken log2 fold change	0.026
RRIRQRPPRLPRPRPRPNSVPRP	shrunken log2 fold change	-0.265
RRIRKRPPRLPRPRPRPSIRPRP	shrunken log2 fold change	-0.375
RRIRGRPPRLPRPRPRPLKTPRP	shrunken log2 fold change	0.58
RRIRPRPPRLPRPRPRPMDDPRP	shrunken log2 fold change	0.00641
RRIRQRPPRLPRPRPRPYERPRP	shrunken log2 fold change	0.074

----------
# Tested on: Escherichia coli TOP10;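 also: peptides expressed intracellularly from a pBAD plasmid library in pooled LB shake-flask culture, induced with 0.3% L-arabinose, DNA abundance read by NGS, three biological replicates, DESeq2 with apeglm shrinkage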
# experiment_notes: shrunken log2 fold change of peptide-encoding DNA abundance (4.5 h post-induction vs induction); higher = less antimicrobial activity (less host growth inhibition)
# condition_summary: time post-induction: 4.5 h; library: site-saturation at positions 5, 18, 19, 20

sequence_entry	shrunken log2 fold change
RRIRQRPPRLPRPRPRPPLHPRP	0.24
RRIRLRPPRLPRPRPRPNGMPRP	-0.0765
RRIRLRPPRLPRPRPRPWNQPRP	0.0295
RRIRERPPRLPRPRPRPWWVPRP	-0.056
RRIRHRPPRLPRPRPRPWWRPRP	0.219
RRIRSRPPRLPRPRPRPKDCPRP	0.456
RRIRTRPPRLPRPRPRPLCYPRP	-0.452
RRIRKRPPRLPRPRPRPFLIPRP	-0.19
RRIRMRPPRLPRPRPRPFKLPRP	0.102
RRIRARPPRLPRPRPRPTIRPRP	0.109
RRIRVRPPRLPRPRPRPIPFPRP	0.0609
RRIRSRPPRLPRPRPRPSPAPRP	0.242
RRIRVRPPRLPRPRPRPQQPPRP	0.124
RRIRPRPPRLPRPRPRPKEGPRP	-0.00237
RRIRDRPPRLPRPRPRPTEVPRP	0.121
RRIRQRPPRLPRPRPRPDSRPRP	-0.0119
RRIRYRPPRLPRPRPRPREMPRP	-0.126
RRIRWRPPRLPRPRPRPWQDPRP	-0.00695
RRIRLRPPRLPRPRPRPICWPRP	-0.0336
RRIRCRPPRLPRPRPRPTAQPRP	0.301
RRIRPRPPRLPRPRPRPQMEPRP	0.0168
RRIRARPPRLPRPRPRPILQPRP	0.0186
RRIRIRPPRLPRPRPRPYVVPRP	-1.54
RRIRWRPPRLPRPRPRPWPCPRP	0.0272
RRIRQRPPRLPRPRPRPMCLPRP	-0.184
RRIRARPPRLPRPRPRPYPFPRP	-0.63
RRIRSRPPRLPRPRPRPVAPPRP	0.397
RRIRYRPPRLPRPRPRPNKSPRP	-0.941
RRIRWRPPRLPRPRPRPIKYPRP	-0.744
RRIRFRPPRLPRPRPRPCMMPRP	-0.0025
RRIRQRPPRLPRPRPRPPRIPRP	0.0686
RRIRPRPPRLPRPRPRPLGAPRP	0.426
RRIRERPPRLPRPRPRPHYFPRP	-0.658
RRIRSRPPRLPRPRPRPCKNPRP	-0.283
RRIRDRPPRLPRPRPRPYTDPRP	0.0446
RRIRHRPPRLPRPRPRPWPPPRP	0.491
RRIRCRPPRLPRPRPRPIFMPRP	-0.269
RRIRLRPPRLPRPRPRPATKPRP	0.0731
RRIRFRPPRLPRPRPRPTFWPRP	-0.0559
RRIRQRPPRLPRPRPRPFCWPRP	0.42
RRIRQRPPRLPRPRPRPYHAPRP	-0.052
RRIRMRPPRLPRPRPRPLHNPRP	-0.127
RRIRCRPPRLPRPRPRPNWCPRP	-0.0555
RRIRFRPPRLPRPRPRPSDHPRP	-0.221
RRIRMRPPRLPRPRPRPVGQPRP	-0.00911
RRIRHRPPRLPRPRPRPARCPRP	0.252
RRIRQRPPRLPRPRPRPRWNPRP	-0.0799
RRIRTRPPRLPRPRPRPLFDPRP	-0.451
RRIRWRPPRLPRPRPRPEDDPRP	1.19
RRIRCRPPRLPRPRPRPCCVPRP	-0.409
RRIRSRPPRLPRPRPRPPECPRP	0.0423
RRIRFRPPRLPRPRPRPSHWPRP	0.0131
RRIRHRPPRLPRPRPRPAEKPRP	-0.0153
RRIRDRPPRLPRPRPRPQPYPRP	-0.651
RRIRGRPPRLPRPRPRPYGWPRP	-0.0363
RRIRQRPPRLPRPRPRPHVRPRP	-0.00149
RRIRNRPPRLPRPRPRPCLVPRP	0.0322

Source of measurements: the supplement of paper PMC9112550
